For each record, write down the corresponding Kd.
Target: human transferrin (human, UniProt P02787 20-698)
Sequence (P02787 20-698 limits assumed): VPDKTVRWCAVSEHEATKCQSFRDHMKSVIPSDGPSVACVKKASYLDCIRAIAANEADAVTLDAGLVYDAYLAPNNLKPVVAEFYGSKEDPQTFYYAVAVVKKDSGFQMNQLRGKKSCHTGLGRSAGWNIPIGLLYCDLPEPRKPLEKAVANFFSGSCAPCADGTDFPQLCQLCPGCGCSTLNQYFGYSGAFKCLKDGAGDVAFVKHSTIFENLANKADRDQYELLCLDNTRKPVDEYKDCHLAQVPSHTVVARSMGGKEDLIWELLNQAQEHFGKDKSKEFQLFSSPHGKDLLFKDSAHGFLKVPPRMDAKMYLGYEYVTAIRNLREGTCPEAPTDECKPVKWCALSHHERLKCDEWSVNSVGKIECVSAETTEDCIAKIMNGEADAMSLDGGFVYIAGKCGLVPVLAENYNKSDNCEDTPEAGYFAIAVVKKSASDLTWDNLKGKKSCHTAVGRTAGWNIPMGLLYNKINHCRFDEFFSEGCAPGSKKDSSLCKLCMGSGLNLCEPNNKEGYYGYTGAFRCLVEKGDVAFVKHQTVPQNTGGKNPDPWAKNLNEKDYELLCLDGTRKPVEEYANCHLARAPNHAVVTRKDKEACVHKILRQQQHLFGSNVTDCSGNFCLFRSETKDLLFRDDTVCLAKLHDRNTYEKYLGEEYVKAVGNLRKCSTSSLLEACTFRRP
Experiment: SPR, BIAcore T200, human transferrin amine-coupled to CM5 chip, sdAb injected
Answers are plain numbers, in nM.

Worked cases, answers included:
1) AS01299 sdAb (VHH, Llama sdAb made in E. coli with a C-terminal 6xHis tag; also called sdAb AS01299) VHH: QVQLVESGGGLVQPGGSLRLSCAASGSIFSIATMAWYRQAPGKQRELVAGITRSGSTNYRDSVKGRFTISRDNAKNTMYLQMNSLKPEDTAVYYCTDYSSRYYHDYWGQGTQVTVSS: 0.98
2) AS01299VH3a-M78 (VHH, Humanized variant of AS01299, C-terminal 6xHis tag) VHH: EVQLVESGGGLVQPGGSLRLSCAASGSIFSIATMAWYRQAPGKGLELVAGITRSGSTNYRDSVKGRFTISRDNSKNTLYLQMNSLRAEDTAVYYCTDYSSRYYHDYWGQGTLVTVSS: 1.1
3) AS01299VH3a-L47 (VHH, Humanized variant of AS01299, C-terminal 6xHis tag; also called AS01299VH3a-L47-2) VHH: EVQLVESGGGLVQPGGSLRLSCAASGSIFSIATMAWYRQAPGKGLEWVAGITRSGSTNYRDSVKGRFTISRDNSKNTMYLQMNSLRAEDTAVYYCTDYSSRYYHDYWGQGTLVTVSS: 3.7
4) AS01299VH4-L47 (VHH, Humanized variant of AS01299, C-terminal 6xHis tag; also called AS01299VH4-L47-2) VHH: EVQLVESGGGLVQPGGSLRLSCAASGSIFSIATMAWYRQAPGKGLEWVSGITRSGSTNYRDSVKGRFTISRDNSKNTLYLQMNSLRAEDTAVYYCTDYSSRYYHDYWGQGTLVTVSS: 6
5) AS01299VH4 (VHH, Humanized variant of AS01299, C-terminal 6xHis tag) VHH: EVQLVESGGGLVQPGGSLRLSCAASGSIFSIATMAWYRQAPGKGLELVSGITRSGSTNYRDSVKGRFTISRDNSKNTLYLQMNSLRAEDTAVYYCTDYSSRYYHDYWGQGTLVTVSS: 1.1

As a next step, examine the binder that follows.
Please fill in: Kd reported for AS01299VH3a (VHH, Humanized variant of AS01299, C-terminal 6xHis tag) VHH: EVQLVESGGGLVQPGGSLRLSCAASGSIFSIATMAWYRQAPGKGLELVAGITRSGSTNYRDSVKGRFTISRDNSKNTMYLQMNSLRAEDTAVYYCTDYSSRYYHDYWGQGTLVTVSS = 1.3
